The entries below are paired with their reported Bliss excess.
system: U-266 (Plasma Cell Myeloma); test: Bliss excess, mean over the matrix (fraction); higher = more synergy

| compound | Bliss excess |
| --- | --- |
| Cc1c2c(nn1C)CSCc1cc(n(C)n1)CSc1cc(c3ccccc3c1)OCCCc1c(C(=O)O)n(C)c3c-2c(Cl)ccc13 [AZD5991] + Cn1cnc2c(F)c(Nc3ccc(Br)cc3Cl)c(C(=O)NOCCO)cc21 [Selumetinib] (first compound max 1 µM, 7x7, partner max 3 µM) | 0.0068 |
| CCc1c2c(nc3ccc(O)cc13)-c1cc3c(c(=O)n1C2)COC(=O)[C@]3(O)CC [SN-38] + O=C(c1cc(Cc2n[nH]c(=O)c3ccccc23)ccc1F)N1CCN(C(=O)C2CC2)CC1 [Olaparib] (first compound max 0.3 µM, 7x7, partner max 10 µM) | 0.0526 |
| CC1(C)CCC(CN2CCN(c3ccc(C(=O)NS(=O)(=O)c4ccc(NCC5CCOCC5)c([N+](=O)[O-])c4)c(Oc4cnc5[nH]ccc5c4)c3)CC2)=C(c2ccc(Cl)cc2)C1 [Venetoclax] + Cc1cc2ncnn2cc1Nc1ncc2c(n1)n(C1CCOCC1)c(=O)n2C [AZD7648] (first compound max 1 µM, 7x7, partner max 10 µM) | 0.0148 |
| Cc1c2c(nn1C)CSCc1cc(n(C)n1)CSc1cc(c3ccccc3c1)OCCCc1c(C(=O)O)n(C)c3c-2c(Cl)ccc13 [AZD5991] + CN(C)CCCOc1ccc(-c2ccc3ncc4c(c3c2)n(C2CCOCC2)c(=O)n4C)cn1 [AZD0156] (first compound max 1 µM, 7x7, partner max 1 µM) | 0.0057 |

----------
The entries below are paired with their reported Bliss excess.
system: DB (B-Cell Non-Hodgkin's Lymphoma); test: Bliss excess, mean over the matrix (fraction); higher = more synergy

| compound | Bliss excess |
| --- | --- |
| CN(CCO)CC[C@H](CSc1ccccc1)Nc1ccc(S(=O)(=O)NC(=O)c2ccc(N3CCC([C@@H](O)c4ccccc4-c4ccc(Cl)cc4)CC3)cc2)cc1S(=O)(=O)C(F)(F)F [AZD4320] + CC(=O)O[C@H]1C(=O)[C@@]2(C)[C@H]([C@H](OC(=O)c3ccccc3)[C@]3(O)C[C@H](OC(=O)[C@H](O)[C@@H](NC(=O)c4ccccc4)c4ccccc4)C(C)=C1C3(C)C)[C@]1(OC(C)=O)CO[C@@H]1C[C@@H]2O [Paclitaxel] (first compound max 1 µM, 7x7, partner max 3 µM) | 0.043 |
| CC1(C)CCC(CN2CCN(c3ccc(C(=O)NS(=O)(=O)c4ccc(NCC5CCOCC5)c([N+](=O)[O-])c4)c(Oc4cnc5[nH]ccc5c4)c3)CC2)=C(c2ccc(Cl)cc2)C1 [Venetoclax] + COc1cc(Nc2ncc3c(n2)-c2ccc(Cl)cc2C(c2c(F)cccc2OC)=NC3)ccc1C(=O)O [Alisertib] (first compound max 1 µM, 7x7, partner max 10 µM) | 0.124 |
| Cc1c2c(nn1C)CSCc1cc(n(C)n1)CSc1cc(c3ccccc3c1)OCCCc1c(C(=O)O)n(C)c3c-2c(Cl)ccc13 [AZD5991] + C[C@@H](Nc1cc(F)cc(F)c1)c1cc(C(=O)N(C)C)cc2c(=O)cc(N3CCOCC3)oc12 [AZD8186] (first compound max 1 µM, 7x7, partner max 3 µM) | -0.0287 |

----------
tested on: SW1783 (Low Grade Glioma); test: combination Emax (second highest fraction inhibited in the dose matrix, 72 h); higher = more inhibition; extreme values may be limits of the assay
The entries below are paired with their reported combination Emax.
observable: combination Emax

| compound | measured value |
| --- | --- |
| COc1cccc(OCCCN)c1-c1cc(Nc2cnc(C#N)cn2)n[nH]1 [Prexasertib] + CN(C)CCCOc1ccc(-c2ccc3ncc4c(c3c2)n(C2CCOCC2)c(=O)n4C)cn1 [AZD0156] (first compound max 1 µM, 7x7, partner max 1 µM) | 0.445 |
| C[C@@H](c1ccc2nccn2c1)n1nnc2ncc(-c3cnn(C)c3)nc21 [Savolitinib] + Cc1c2c(nn1C)CSCc1cc(n(C)n1)CSc1cc(c3ccccc3c1)OCCCc1c(C(=O)O)n(C)c3c-2c(Cl)ccc13 [AZD5991] (first compound max 1 µM, 7x7, partner max 1 µM) | 0.22 |
| CCN(CCO)CCCOc1ccc2c(Nc3cc(CC(=O)Nc4cccc(F)c4)[nH]n3)ncnc2c1 [AZD2811] + C[C@@H]1COCCN1C2=NC(=NC(=C2)C3(CC3)[S@](=N)(=O)C)C4=C5C=CNC5=NC=C4 [AZD6738] (first compound max 1 µM, 7x7, partner max 10 µM) | 0.321 |
| NC1(C(=O)N[C@@H](CCO)c2ccc(Cl)cc2)CCN(c2ncnc3[nH]ccc23)CC1 [Capivasertib] + CC(C)n1c(=O)n(C)c2cnc3cc(F)c(-c4ccc(OCCCN5CCCCC5)nc4)cc3c21 [AZD1390] (first compound max 10 µM, 7x7, partner max 0.3 µM) | 0.454 |
| C[C@@H]1COCCN1c1cc(C2([S@](C)(=N)=O)CC2)nc(-c2ccnc3[nH]ccc23)n1 [AZD6738] + C1CC(C1)(C(=O)[O-])C(=O)[O-].N.N.[Pt+2] [Carboplatin] (first compound max 10 µM, 7x7, partner max 10 µM) | 0.447 |
| CC(=O)c1c(C)c2cnc(Nc3ccc(N4CCNCC4)cn3)nc2n(C2CCCC2)c1=O [Palbociclib] + CC1(C)CCC(CN2CCN(c3ccc(C(=O)NS(=O)(=O)c4ccc(NCC5CCOCC5)c([N+](=O)[O-])c4)c(Oc4cnc5[nH]ccc5c4)c3)CC2)=C(c2ccc(Cl)cc2)C1 [Venetoclax] (first compound max 10 µM, 7x7, partner max 1 µM) | 0.0456 |
| CC1(C)CCC(CN2CCN(c3ccc(C(=O)NS(=O)(=O)c4ccc(NCC5CCOCC5)c([N+](=O)[O-])c4)c(Oc4cnc5[nH]ccc5c4)c3)CC2)=C(c2ccc(Cl)cc2)C1 [Venetoclax] + CCN(CCO)CCCOc1ccc2c(Nc3cc(CC(=O)Nc4cccc(F)c4)[nH]n3)ncnc2c1 [AZD2811] (first compound max 1 µM, 7x7, partner max 1 µM) | 0.333 |

----------
system: KATOIII (Gastric Carcinoma); experiment: Bliss excess, mean over the matrix (fraction); higher = more synergy
observable: Bliss excess

| compound | tested on | measured value |
| --- | --- | --- |
| Cc1c2c(nn1C)CSCc1cc(n(C)n1)CSc1cc(c3ccccc3c1)OCCCc1c(C(=O)O)n(C)c3c-2c(Cl)ccc13 [AZD5991] + C1CN(CCC1(C(=O)N[C@@H](CCO)C2=CC=C(C=C2)Cl)N)C3=NC=NC4=C3C=CN4 [Capivasertib] (first compound max 1 µM, 7x7, partner max 3 µM) | KATOIII (Gastric Carcinoma) | -0.0267 |
| Cc1c2c(nn1C)CSCc1cc(n(C)n1)CSc1cc(c3ccccc3c1)OCCCc1c(C(=O)O)n(C)c3c-2c(Cl)ccc13 [AZD5991] + CS(=O)(=O)CCNCc1ccc(-c2ccc3ncnc(Nc4ccc(OCc5cccc(F)c5)c(Cl)c4)c3c2)o1 [Lapatinib] (first compound max 1 µM, 7x7, partner max 10 µM) | KATOIII (Gastric Carcinoma) | -0.0787 |
| COc1cc2c(cc1OCCCCCOc1cc3c(cc1OC)C(=O)N1C=C(C)C[C@H]1C=N3)N=C[C@@H]1CC(C)=CN1C2=O [SG3199] + O=C(c1cc(Cc2n[nH]c(=O)c3ccccc23)ccc1F)N1CCN(C(=O)C2CC2)CC1 [Olaparib] (first compound max 0.001 µM, 7x7, partner max 10 µM) | KATOIII (Gastric Carcinoma) | -0.0365 |
| COc1cccc(OCCCN)c1-c1cc(Nc2cnc(C#N)cn2)n[nH]1 [Prexasertib] + C=CCn1c(=O)c2cnc(Nc3ccc(N4CCN(C)CC4)cc3)nc2n1-c1cccc(C(C)(C)O)n1 [AZD1775] (first compound max 1 µM, partner max 1 µM) | KATOIII (Gastric Carcinoma) | -0.0076 |

----------
The entries below are paired with their reported Bliss excess.
tested on: IHH-4 (Thyroid Gland Carcinoma); assay: Bliss excess, mean over the matrix (fraction); higher = more synergy
observable: Bliss excess

| compound | tested on | observable | measured value |
| --- | --- | --- | --- |
| C[C@@H](c1ccc2nccn2c1)n1nnc2ncc(-c3cnn(C)c3)nc21 [Savolitinib] + Cc1c2c(nn1C)CSCc1cc(n(C)n1)CSc1cc(c3ccccc3c1)OCCCc1c(C(=O)O)n(C)c3c-2c(Cl)ccc13 [AZD5991] (first compound max 1 µM, 7x7, partner max 1 µM) | IHH-4 (Thyroid Gland Carcinoma) | Bliss excess | -0.0182 |
| CCc1c2c(nc3ccc(O)cc13)-c1cc3c(c(=O)n1C2)COC(=O)[C@]3(O)CC [SN-38] + O=C(c1cc(Cc2n[nH]c(=O)c3ccccc23)ccc1F)N1CCN(C(=O)C2CC2)CC1 [Olaparib] (first compound max 0.3 µM, 7x7, partner max 10 µM) | IHH-4 (Thyroid Gland Carcinoma) | Bliss excess | 0.0356 |
| Cc1c2c(nn1C)CSCc1cc(n(C)n1)CSc1cc(c3ccccc3c1)OCCCc1c(C(=O)O)n(C)c3c-2c(Cl)ccc13 [AZD5991] + CC(=O)O[C@H]1C(=O)[C@@]2(C)[C@H]([C@H](OC(=O)c3ccccc3)[C@]3(O)C[C@H](OC(=O)[C@H](O)[C@@H](NC(=O)c4ccccc4)c4ccccc4)C(C)=C1C3(C)C)[C@]1(OC(C)=O)CO[C@@H]1C[C@@H]2O [Paclitaxel] (first compound max 1 µM, 7x7, partner max 3 µM) | IHH-4 (Thyroid Gland Carcinoma) | Bliss excess | -0.0341 |
